Data provenance: paper PMC4414246

# Kd values compiled below
Target: U1A L49K (UniProt P09012 10-89, L49K)
Sequence (P09012 10-89 L49K): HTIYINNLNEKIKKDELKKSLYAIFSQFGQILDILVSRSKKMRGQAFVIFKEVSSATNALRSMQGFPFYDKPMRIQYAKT
Test: fluorescence polarization
Give your result in µM as a bare value.

| BINDER | READING_UNIT | REPORTED_VALUE |
| --- | --- | --- |
| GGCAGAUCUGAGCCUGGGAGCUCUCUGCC (structured_RNA) [TAR RNA] | µM | 3.9 |

Sample GGCAGATCTGAGCCTGGGAGCTCTCTGCC (structured_DNA) [TAR DNA] ; Kd observed: 19.5
